tested on: Granta-519
measuredQuantity: IC50

API: value(readout=IC50, system=Granta-519) for record `CNC(=O)c1cc(Oc2ccc(NC(=O)Nc3ccc(Cl)c(C(F)(F)F)c3)cc2)ccn1`
≥ 8 µM

* * *

system: LY7 (OCH-Ly7); test: Cytotoxicity DLBCL; conditions: read-out: cytotoxicity IC50; LY7, DLBCL GCB
measuredQuantity: IC50 (µM)
The reply should contain only the number, in µM.

// IC50 lookup, key: `CN(C)CCNC(=O)c1cccc(NC(=O)Nc2ccc(N(CCCl)CCCl)cc2)c1`
5.06

* * *

tested on: DLBCL (GBC) cell lines; assay: Combination of BO-1055 with PUH71, TT46, bortezomib, doxorubicin (Table 25); type: cell-based; conditions: Homo sapiens, SU-DHL-4, read-out: IC50 single agent
measuredQuantity: pIC50
API: returns pIC50 as number; meaning -log10 of concentration in mol/L.

// pIC50 lookup, key: `CN(C)CCNC(=O)c1cccc(NC(=O)Nc2ccc(N(CCCl)CCCl)cc2)c1`
5.71

* * *

This listing pairs compounds with measured IC50.
tested on: Pfeiffer; conditions: human
The reply should contain only the number, in nM.

API: value(readout=IC50, system=Pfeiffer) for record `CN(C)CCNC(=O)c1cccc(NC(=O)Nc2ccc(N(CCCl)CCCl)cc2)c1`
3870

API: value(readout=IC50, system=Pfeiffer) for record `CC(C)C[C@H](NC(=O)[C@H](Cc1ccccc1)NC(=O)c1cnccn1)B(O)O`
4

API: value(readout=IC50, system=Pfeiffer) for record `COc1cccc2c1C(=O)c1c(O)c3c(c(O)c1C2=O)C[C@@](O)(C(=O)CO)C[C@@H]3O[C@H]1C[C@H](N)[C@H](O)[C@H](C)O1`
61

* * *

tested on: AML cell lines; assay: Cytotoxicity, panel of AML cell lines; format: cell-based, human; settings: Homo sapiens, THP1 and MOLM13
measuredQuantity: IC50

// IC50 lookup, key: `CN(C)CCNC(=O)c1cccc(NC(=O)Nc2ccc(N(CCCl)CCCl)cc2)c1`
180 to 450 nM

* * *

tested on: SUDHL-6
pIC50: −log10 of the molar value.
measuredQuantity: pIC50

// pIC50 lookup, key: CNC(=O)c1cc(Oc2ccc(NC(=O)Nc3ccc(Cl)c(C(F)(F)F)c3)cc2)ccn1 [SOR]
≤ 5.10

* * *

tested on: spontaneous murine B-cell lymphoma; assay: Cytotoxicity, with or without MS5 stromal cells; conditions: read-out: cytotoxicity IC50; murine BCL, spontaneous NSG CD19+, no stromal support
measuredQuantity: IC50 (nM)
The reply should contain only the number, in nM.

// IC50 lookup, key: `CC(C)NCCCn1c(Sc2cc3c(cc2I)OCO3)nc2c(N)ncnc21`
240

* * *

tested on: Mino; experiment: Cytotoxicity mantle cell lymphoma; conditions: read-out: cytotoxicity IC50; Mino, mantle cell lymphoma
measuredQuantity: pIC50
API: returns pIC50 as number; meaning -log10 of concentration in mol/L.

// pIC50 lookup, key: CC(C)NCCCn1c(Sc2cc3c(cc2I)OCO3)nc2c(N)ncnc21 [PUH71]
6.59

* * *

test system: NOSE ovarian epithelium; format: cell-based, human
pIC50: −log10 of the molar value.
measuredQuantity: pIC50

API: value(readout=pIC50, system=NOSE ovarian epithelium) for record N.N.[Cl][Pt][Cl] [Cisplatin]
≤ 4.60

src = patent US20200246284A1
